biological target: c-MET receptor tyrosine kinase, GST-c-MET(969-1390) (Homo sapiens, UniProt P08581)
Sequence (P08581 969-1390): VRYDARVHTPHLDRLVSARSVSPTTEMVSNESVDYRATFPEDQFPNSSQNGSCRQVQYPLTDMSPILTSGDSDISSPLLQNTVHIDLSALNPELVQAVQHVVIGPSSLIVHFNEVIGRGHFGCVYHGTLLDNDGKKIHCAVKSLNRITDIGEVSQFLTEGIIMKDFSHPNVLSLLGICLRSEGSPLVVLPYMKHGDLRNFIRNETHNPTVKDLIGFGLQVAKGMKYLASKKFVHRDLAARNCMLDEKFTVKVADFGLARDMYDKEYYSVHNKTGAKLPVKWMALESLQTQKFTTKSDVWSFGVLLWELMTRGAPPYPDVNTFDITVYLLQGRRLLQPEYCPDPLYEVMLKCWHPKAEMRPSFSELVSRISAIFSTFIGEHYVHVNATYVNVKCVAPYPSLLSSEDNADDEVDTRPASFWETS
Simple rule here: IC50 less than 5 nM is yes (1), otherwise no (0).

Molecule | Label class
C/C(=N\O)c1ccc2nnc([C@H](C)c3c(F)cc4ncc(-c5cnn(C)c5)cc4c3F)n2n1 [Example 21-(R)] | no (0)
C/C(=N\O)c1ccc2nnc(Cc3ccc4ncc(NC5CCOCC5)cc4c3)n2n1 | yes (1)
CCO/N=C(\C)c1ccc2nnc(Cc3ccc4ncc(-c5cnn(C)c5)cc4c3)n2n1 | yes (1)
C/C(=N\OCC1CC1)c1ccc2nnc([C@@H](C)c3ccc4ncc(-c5cnn(C)c5)cc4c3)n2n1 [Example 4-(S)] | no (0)
C/C(=N\OCCO)c1ccc2nnc(Cc3c(F)cc4ncc(C5CCCCC5)cc4c3F)n2n1 | no (0)
C/C(=N\O)c1ccc2nnc([C@@H](C)c3c(F)cc4ncc(-c5cnn(C)c5)cc4c3F)n2n1 [Example 21-(S)] | yes (1)
C/C(=N\O)c1ccc2nnc(Sc3ccc4ncc(CN5CCOCC5)cc4c3)n2n1 | yes (1)
C/C(=N\OCC1CC1)c1ccc2nnc(C(C)c3ccc4ncc(-c5cnn(C)c5)cc4c3)n2n1 (stereo not shown) | no (0)
C/C(=N\OCC1CC1)c1ccc2nnc([C@H](C)c3ccc4ncc(-c5cnn(C)c5)cc4c3)n2n1 [Example 4-(R)] | no (0)
C/C(=N\O)c1ccc2nnc(Cc3c(F)cc4ncc(N5CCOCC5)cc4c3F)n2n1 | yes (1)
C/C(=N\O)c1ccc2nnc(Cc3c(F)cc4ncc(-c5cnn(C)c5)cc4c3F)n2n1 | yes (1)
CO/N=C(\C)c1ccc2nnc(Cc3ccc4ncc(-c5cnn(C)c5)cc4c3)n2n1 | yes (1)

----------
tested on: GTL16 cells; test: GTL16 cell viability assay (CellTiter Glo); format: cell-based; details: Homo sapiens, GTL 16, GTL16 gastric cancer cells, 24 hours, triplicates, read-out: GTL-16 Proliferation IC50
pIC50: −log10 of the molar value.
Give Criterion met when the value for pIC50 is at least 8. Give Criterion not met when it is less.

Molecule | Target or test system | Label class
C/C(=N\O)c1ccc2nnc([C@@H](C)c3c(F)cc4ncc(C(C)(C)O)cc4c3F)n2n1 [24-(S)] | GTL16 cells | Criterion not met
C/C(=N\O)c1ccc2nnc(Sc3ccc4ncc(N5CCOCC5)cc4c3)n2n1 [Example 10] | GTL16 cells | Criterion met
C/C(=N\O)c1ccc2nnc(Cc3ccc4ncc(-c5cnn(C)c5)cc4c3)n2n1 [Example 12] | GTL16 cells | Criterion met
C/C(=N\O)c1ccc2nnc(Cc3ccc4ncc(N5CCN(C)CC5)cc4c3)n2n1 [Example 14] | GTL16 cells | Criterion met
C/C(=N\O)c1ccc2nnc(Sc3ccc4ncc(N5CCC(N(C)C)C5)cc4c3)n2n1 (stereo not drawn) [Example 33] | GTL16 cells | Criterion met
CCN(CC)Cc1cnc2ccc(Sc3nnc4ccc(/C(C)=N/O)nn34)cc2c1 [Example 32] | GTL16 cells | Criterion not met
C/C(=N\O)c1ccc2nnc([C@H](C)c3c(F)cc4ncc(-c5cnn(C)c5)cc4c3F)n2n1 [Example 21-(R)] | GTL16 cells | Criterion not met
C/C(=N\OCC1CC1)c1ccc2nnc([C@H](C)c3ccc4ncc(-c5cnn(C)c5)cc4c3)n2n1 [Example 4-(R)] | GTL16 cells | Criterion not met
CCO/N=C(\C)c1ccc2nnc(Cc3ccc4ncc(-c5cnn(C)c5)cc4c3)n2n1 [Example 8] | GTL16 cells | Criterion met
C/C(=N\O)c1ccc2nnc(Sc3ccc4ncc(N5CCN(C)CC5)cc4c3)n2n1 [Example 28] | GTL16 cells | Criterion met
C/C(=N\O)c1ccc2nnc(Sc3ccc4ncc(NC5CCOCC5)cc4c3)n2n1 [Example 30] | GTL16 cells | Criterion met
C/C(=N\O)c1ccc2nnc(Cc3c(F)cc4ncc(-c5cnn(C)c5)cc4c3F)n2n1 [Example 22] | GTL16 cells | Criterion met
C/C(=N\O)c1ccc2nnc(Cc3ccc4ncc(CN5CCCCC5)cc4c3)n2n1 [Example 18] | GTL16 cells | Criterion not met

FYI, the data here is from patent US20130324526A1.
